Source of measurements: patent US20230150970A1

Readings of EC50 for the listed molecules
system.tested: AhR (Homo sapiens, UniProt P35869)
Sequence (P35869 11-848): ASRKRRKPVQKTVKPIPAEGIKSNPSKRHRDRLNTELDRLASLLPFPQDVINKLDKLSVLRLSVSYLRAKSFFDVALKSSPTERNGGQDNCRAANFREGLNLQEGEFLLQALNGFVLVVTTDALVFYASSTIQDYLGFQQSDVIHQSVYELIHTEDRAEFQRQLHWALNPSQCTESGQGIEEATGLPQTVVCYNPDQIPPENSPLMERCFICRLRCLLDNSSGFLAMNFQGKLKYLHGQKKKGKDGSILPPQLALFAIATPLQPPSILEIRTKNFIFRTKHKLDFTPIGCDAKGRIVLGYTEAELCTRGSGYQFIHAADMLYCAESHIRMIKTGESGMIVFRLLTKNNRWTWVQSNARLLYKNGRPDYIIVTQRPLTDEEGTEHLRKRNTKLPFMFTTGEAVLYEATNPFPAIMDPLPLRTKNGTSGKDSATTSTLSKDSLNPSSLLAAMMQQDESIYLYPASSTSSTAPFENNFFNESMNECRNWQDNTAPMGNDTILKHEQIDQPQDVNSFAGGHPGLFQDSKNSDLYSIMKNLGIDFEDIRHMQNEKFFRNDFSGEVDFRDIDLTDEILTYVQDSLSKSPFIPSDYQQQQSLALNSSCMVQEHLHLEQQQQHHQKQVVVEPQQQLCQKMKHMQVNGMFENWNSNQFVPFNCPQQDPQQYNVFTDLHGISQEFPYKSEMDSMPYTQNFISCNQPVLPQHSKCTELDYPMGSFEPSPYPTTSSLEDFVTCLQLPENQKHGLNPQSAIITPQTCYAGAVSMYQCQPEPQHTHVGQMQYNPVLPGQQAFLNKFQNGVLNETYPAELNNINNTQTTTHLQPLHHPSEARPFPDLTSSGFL
run.description: In Vitro Assay 3: XRE-luciferase reporter assay, agonism in human cell line (HepG2)
Assay type: cell-based
Parameters: endogenous in cells; host or cells: HepG2
reported.conditions: number of the cell; HepG2, tryptophan free medium, 6 hours, no agonist; read-out: Assay 3: AhR-Luc Human Agonism (EC50)

Would you please look over these solved cases?
Q: Record request: EC50 value, item O[C@H]1CN(c2cc(-c3ccc(C(F)(F)F)cc3)nc(-c3cccnc3)n2)C[C@@H]1O
Ans: > 30 µM

Q: Record request: EC50 value, item OCC1CCN(c2cc(-c3ccc(N4CCOCC4)nc3)nc(-c3cccnc3)n2)CC1
Ans: > 30 µM

Q: Record request: EC50 value, item OC[C@@H]1CCN(c2cc(-c3ccc(Cl)cc3)nc(-c3cccnc3)n2)C[C@H]1F
Ans: > 30 µM

Q: Record request: EC50 value, item C[C@@H]1CN(c2cc(-c3ccc(Cl)cc3)nc(-c3cccnc3)n2)C[C@H](C)O1
Ans: 0.758 µM

Q: Record request: EC50 value, item CC[C@H](CO)Nc1cc(-c2ccc(Cl)cc2)nc(-c2cccnc2)n1
Ans: 0.0126 µM

***
Q: Record request: EC50 value, item COCCN1CCC(CNc2cc(-c3ccc(Cl)cc3)nc(-c3cccnc3)n2)CC1
Ans: > 30 µM

Q: Record request: EC50 value, item CC(CO)N1CCN(c2cc(-c3ccc(Cl)cc3)nc(-c3cccnc3)n2)CC1 (stereo not drawn)
Ans: > 30 µM

Q: Record request: EC50 value, item O[C@H]1CC[C@@H](Nc2cc(-c3ccc(Cl)cc3)nc(-c3cccnc3)n2)C1
Ans: > 30 µM

Q: Record request: EC50 value, item O=C(CCCO)N1CCN(c2cc(-c3ccc(Cl)cc3)nc(-c3cccnc3)n2)CC1
Ans: > 30 µM
